# Test system: TEC;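 also: KINOMEscan kinase panel screen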
# details: concentration: 1 μM, replicates: in singlicate; n = 1
measured-attribute: %Inh (%)
The reply should be a number in %, with the unit left off.

Solved cases below.
Summary for this compound, `Cc1ccc(C(=O)Nc2ccc(Nc3ccnc4cc(-c5ccccn5)ccc34)cc2O)cc1.Cl` : %Inh is 13

Summary for this compound, O=C(Nc1ccc2c(c1)OCO2)NC1CCN(c2ccnc(Nc3ccc(F)cc3)n2)C1 (stereo not drawn) : %Inh is 7

Now take the following compound into account.
Summary for this compound, `Cl.NC(=O)c1cccc(Nc2nccc(Nc3ccc(Oc4cccc(Cl)c4)c(Cl)c3)n2)c1` : %Inh is 10

Values from paper PMC5540273
